Recorded measurements of viability, T/C, one per entry
Tested on: IGROV1 complex spheroids (HUVEC, MSC), viability % test/control
Experiment: Anticancer human tumor IGROV1 cell line growth inhibition [GQUAD];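 also: spheroids exposed to compounds for 7 days before readout; 100% = DMSO vehicle control viability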
Settings: second compound 0.316 µM; first compound 1 µM; active compounds read low
# unit: % | format: bare number

Notebook: Nc1ccn(C2OC(CO)C(O)C2(F)F)c(=O)n1 (stereo unspecified) + Cc1[nH]c2ccc(F)cc2c1-c1nc2c3cccnc3c3ncccc3c2[nH]1 , viability, T/C read as 6.72

Briefly, viability, T/C measured for O=C(NO)c1cnc(N2CCN(S(=O)(=O)c3ccc4ccccc4c3)CC2)nc1 + Cc1[nH]c2ccc(F)cc2c1-c1nc2c3cccnc3c3ncccc3c2[nH]1 : 0.3

Record CC(C)(O)C1CCC(Nc2ccc3ncc(-c4cccc(C(F)(F)F)c4)n3n2)CC1 (stereo unspecified) + Cc1cnc(CNC(=O)c2c(=O)c3ccc(N4CCCN(C)CC4)nc3n3c2sc2ccccc23)cn1 , field viability, T/C: 20.5

The molecule listed as Cc1cccc(N(C)C(=O)C2C(O)CCN2c2nc(C)cc(C(F)(F)F)c2C#N)c1 (stereo unspecified) + CN(C)c1ccc(Nc2c3ccc(NC(=O)CCN4CCCC4)cc3nc3cc(NC(=O)CCN4CCCC4)ccc23)cc1 shows viability, T/C equal to 70.6

***
response.value for CC(C)(O)C1CCC(Nc2ccc3ncc(-c4cccc(C(F)(F)F)c4)n3n2)CC1 (stereo unspecified) + CN(C)c1ccc(Nc2c3ccc(NC(=O)CCN4CCCC4)cc3nc3cc(NC(=O)CCN4CCCC4)ccc23)cc1 (field: viability, T/C) = 58

Consider Nc1ccn(C2OC(CO)C(O)C2(F)F)c(=O)n1 (stereo unspecified) + CN(C)c1ccc(Nc2c3ccc(NC(=O)CCN4CCCC4)cc3nc3cc(NC(=O)CCN4CCCC4)ccc23)cc1 . Its measured viability, T/C is 6.03
